# Test system: EKVX NSCLC
# test_details: NCI tumour cell line growth inhibition, 48 h
readout_label: TGI (µM)
Your answer is read as µM, so omit the unit and give the number.

Please review the following examples before continuing.
INSERT INTO results (molecule, reported) VALUES
  ('Cc1ccc(O)c(C(c2ccc(C(c3cc(C)ccc3O)c3cc(C)ccc3O)cc2)c2cc(C)ccc2O)c1', 3.57),
  ('CC12CP(=O)(c3ccccc3)CC1c1ccccc1C2c1ccccc1 (stereo unspecified)', 44.6),
  ('O=C1Nc2ccccc2/C1=C\c1c(Cl)nc2sccn12', 13.8);

[in] Kindly state the measured TGI obtained for O=C(CC1(O)C(=O)Nc2c(Cl)ccc(Cl)c21)c1ccco1 (stereo unspecified) with EKVX NSCLC.
[out] 50.5

[in] Kindly state the measured TGI obtained for COc1cc(OC)c2c(c1)C(=O)C(CC1(C)OCCCO1)=CC2=O with EKVX NSCLC.
[out] 28.6

[in] Kindly state the measured TGI obtained for CC/C=C/C[C@H](O[Si](C)(C)C(C)(C)C)[C@H]1C[C@H]2O[C@H]([C@@H](O)C#C[Si](C)(C)C)C[C@H]2O1 with EKVX NSCLC.
[out] 25.9

[in] Kindly state the measured TGI obtained for CC(=O)Oc1c(-c2ccccc2)oc2ccccc12 with EKVX NSCLC.
[out] 3.99

[in] Kindly state the measured TGI obtained for Cc1c2c(cc3c1[nH]c1ccccc13)C(c1ccc(Cl)cc1)=NCC2 with EKVX NSCLC.
[out] 35.1

[in] Kindly state the measured TGI obtained for COc1ccc(CC(C)=C(c2ccc(OCCN3CCCCCC3)cc2)c2ccc(OCCN3CCCCCC3)cc2)cc1 with EKVX NSCLC.
[out] 1.3

[in] Kindly state the measured TGI obtained for CCC(CC)c1nc(Nc2cccc(OC)c2)c2ccccc2n1 with EKVX NSCLC.
[out] 14.8

[in] Kindly state the measured TGI obtained for C=C1C(=O)O[C@H]2[C@H]1CC/C(COC(=O)/C=C/C(=O)NCc1ccc(Cn3c(=O)sn(-c4ccccc4)c3=O)cc1)=C\CC[C@@]1(C)O[C@@H]21 with EKVX NSCLC.
[out] 17.6

[in] Kindly state the measured TGI obtained for CCOC(=O)/C=C(/C(=O)OCC)n1cc(C)c(=O)n(/C(=C/C(=O)OCC)C(=O)OCC)c1=O with EKVX NSCLC.
[out] 13.9

[in] Kindly state the measured TGI obtained for O=C1C=CC(=O)c2cc3cc(CO)ccc3cc21 with EKVX NSCLC.
[out] 28.1

[in] Kindly state the measured TGI obtained for c1ccc([P+](c2ccccc2)(c2ccccc2)c2ccc3c4ccc([P+](c5ccccc5)(c5ccccc5)c5ccccc5)c5cccc(c6cccc2c63)c54)cc1 with EKVX NSCLC.
[out] 35.2

[in] Kindly state the measured TGI obtained for CN(C)CCCNC(=O)c1cc2/c(=C\c3ccc(N(C)C)cc3)c3ccccc3n2[n+]1C with EKVX NSCLC.
[out] 39.7

[in] Kindly state the measured TGI obtained for O/N=C1/C(=C/c2ccc(Cl)c(Cl)c2)CCCC1C(NO)c1ccc(Cl)c(Cl)c1 (stereo unspecified) with EKVX NSCLC.
[out] 42.9

[in] Kindly state the measured TGI obtained for CO[C@@H]1C[C@H](OC(N)=O)[C@@H]2C=C[C@@H]3/C=C(C)/C=C/[C@@H](C)[C@H]([C@H](C)[C@H](O)[C@@H](C)NC(C)=O)OC(=O)/C=C/C=C(C)\C=C\[C@]3(C)[C@@H]2C1 with EKVX NSCLC.
[out] 5.34
